target: GABA-ρ2 receptors (Homo sapiens, UniProt P28476); experiment: Two-electrode voltage-clamp, co-application of ligand with GABA EC50 at GABA-ρ2 receptors (additive/inhibition)
Sequence (P28476 21-465): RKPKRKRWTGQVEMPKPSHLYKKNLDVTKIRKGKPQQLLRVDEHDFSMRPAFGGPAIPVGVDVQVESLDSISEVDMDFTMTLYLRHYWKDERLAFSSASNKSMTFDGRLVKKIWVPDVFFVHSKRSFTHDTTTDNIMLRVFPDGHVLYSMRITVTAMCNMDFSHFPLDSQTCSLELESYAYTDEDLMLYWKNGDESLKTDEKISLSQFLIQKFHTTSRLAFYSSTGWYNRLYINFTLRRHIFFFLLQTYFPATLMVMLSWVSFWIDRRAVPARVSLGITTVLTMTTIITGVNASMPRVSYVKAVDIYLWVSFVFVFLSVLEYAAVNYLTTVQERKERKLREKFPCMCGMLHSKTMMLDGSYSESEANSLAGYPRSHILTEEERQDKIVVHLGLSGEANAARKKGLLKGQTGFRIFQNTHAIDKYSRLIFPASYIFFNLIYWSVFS
Would you kindly list pIC50 for each of these compounds?
Give bare numbers, as −log10 of the molar value.

[[record]]
smiles_notation = "O=C(O)Cc1c[nH]cn1"
target_under_test = "GABA-ρ2 receptors (Homo sapiens, UniProt P28476)"
readout_number = 5.62


Let us examine a further case.
Request the reported pIC50 associated with `NCCCCC(=O)O`
5.00

---

target: GABA-ρ2 receptors (Homo sapiens, UniProt P28476); construct: expressed in transfected cells; host or cells: Xenopus laevis oocytes injected with cRNA; experiment: Two-electrode voltage-clamp, agonist dose–response at GABA-ρ2 receptors expressed in Xenopus oocytes; type: cell-based; details: TEVC, Xenopus oocytes, −60 mV; read-out: GABA-ρ2 EC50
Would you kindly list pEC50 for each of these compounds?
Give bare numbers, as −log10 of the molar value.

Answered examples (3):
[[record]]
compound = "O=C(O)C1=CCNCC1 [Isoguvacine, isoguvacine]"
target_under_test = "GABA-ρ2 receptors (Homo sapiens, UniProt P28476)"
readout_number = 4.46

[[record]]
compound = "NC/C=C\\C(=O)O [CACA]"
target_under_test = "GABA-ρ2 receptors (Homo sapiens, UniProt P28476)"
readout_number = 4.43

[[record]]
compound = "NC/C=C/C(=O)O [TACA]"
target_under_test = "GABA-ρ2 receptors (Homo sapiens, UniProt P28476)"
readout_number = 6.35


Let us examine a further case.
Request the reported pEC50 associated with NCCCCC(=O)O [5-Aminovaleric acid, 5-amino valeric acid]
4.44
